- Test system: MDA-MB-435
- measurement-notes: NCI tumour cell line growth inhibition, 48 h
result-type: TGI

Here's what some known entries look like.
## Task Need TGI of `C[C@@H]1CC[C@H]2[C@H]1[C@H]1[C@@H](CC[C@]2(C)N=C=S)C1(C)C` , thanks.
## Result 96.6 µM

## Task Given the entry `COc1ccc(Cl)cc1NC(=O)c1ccc(NC2=C(Cl)C(=O)N(Cc3ccccc3)C2=O)cc1` , report its measured TGI.
## Result > 100 µM

## Task Looking for the measured TGI of `NC(=S)N/N=C/c1ncccc1O` , can you help?
## Result > 471 µM

Record TGI per entry; entries follow.
1. N#CC(c1ccccc1)N(CCOCCOCCN(C(=O)c1ccccc1)C(C#N)c1ccccc1)C(=O)c1ccccc1 (centres undefined)
2. COc1cc(O)c2c(=O)c(OC)c(-c3ccc(OC)c(O)c3)oc2c1
3. CCN(CC)c1ccc(/C=C/c2ccnc3ccccc23)cc1
4. COc1cc2c3c(n(C)c(=O)c2cc1OC)-c1cc2c(cc1C3=O)OCO2
5. Nc1nc(Cl)nc2c1ncn2C1CC(O)C(CO)O1 (centres undefined)

## Result
1: > 100 µM; 2: > 100 µM; 3: > 100 µM; 4: > 100 µM; 5: > 100 µM

## Task Name the recorded TGI for C=C(C)C(C1C=C(CCC(C=O)=C(C)C)C(=O)O1)C1(OC)C=C(C)C(=O)O1 (centres undefined) .
## Result > 100 µM

====

- System: XF 498 CNS
- measurement-notes: NCI tumour cell line growth inhibition, 48 h
result-type: TGI (µM)
One number for each entry, in µM.

## Task I would be grateful if you could share the reported TGI for `O=C1c2cccc3cccc(c23)C(=O)N1CCN(CCO)CCO` .
## Result 66.5

Continue with the compound presented below.
## Task Find the recorded TGI belonging to `c1ccc2c(c1)CCc1c(-c3ccncc3)n[nH]c1-2` and report it.
## Result 22.5

====

- Tested on: SK-MEL-5 melanoma
- measurement-notes: NCI tumour cell line growth inhibition, 48 h
result-type: TGI

## Task Sample `CCOC(=O)Cc1csc(Nc2ccccc2[N+](=O)[O-])n1` — what was its TGI?
## Result > 100 µM

## Task Which TGI value belongs to c1ccc(C2=NOC(c3ccccc3)N2C23CC4CC(CC(C4)C2)C3)cc1 (centres undefined) ?
## Result > 10 µM

## Task For the molecule O=C(NN1C(=O)CS(=O)(=O)C1c1ccc(C(F)(F)F)cc1)c1ccncc1 (centres undefined) , what TGI is on record?
## Result > 100 µM

## Task Item under review: `COc1ccc2oc(=N)c(C(=O)Nc3ccccc3)cc2c1` . Reported TGI?
## Result > 100 µM

## Task Entry `Cc1ccc2c(c1)c1ccc3c(c1n2C)C(=O)C=CC3=O` has what TGI?
## Result > 10 µM

## Task Request the reported TGI associated with `CNc1nncc2[nH]cnc12`
## Result > 100 µM

## Task Suppose we examine the molecule `O=C(c1ccc([N+](=O)[O-])cc1[N+](=O)[O-])N(/N=C/C=C/c1ccccc1)c1nnc(-c2ccccc2)c(-c2ccccc2)n1` ; what TGI value has been reported?
## Result > 100 µM

## Task Value lookup for TGI; key = `Cc1cc(C[C@H]2O[C@@H]3OC(C)(C)O[C@@H]3[C@H]3OC(C)(C)O[C@H]32)c2ccccc2n1`
## Result > 100 µM

---
## Task Give its TGI value. Item: `COC(=O)c1c(C)cc(OC)c(C/C=C(\C)CCCc2coc(C=C(C)C)c2)c1OC`
## Result > 100 µM

====

- System: LOX IMVI melanoma
- measurement-notes: NCI tumour cell line growth inhibition, 48 h
For each entry below, report its log10 TGI value.
Values below are the log10 of the recorded TGI, with µM as the unit.

## Task Which value of log10 TGI has been reported for `O=c1c2c(no[n+]2[O-])c2ccccc2n1-c1ccccc1` in the records?
## Result 0.86

## Task Bench note: what log10 TGI did `O=C1c2cccc3cccc(c23)C(=O)N1CCN(CCO)CCO` show?
## Result 1.54

Look at each compound and report its log10 TGI.
1. O=C1N(Cc2ccccc2)C2CSCC2N1Cc1ccccc1 (stereo not drawn)
2. O=c1[nH]c(O)c(C=Nc2ccc(-c3nc4ccccc4o3)cc2)c(=O)[nH]1
3. CCOC(=O)c1c(C)c2c(n1Cc1ccccc1)CSCC2=O
4. O=C1/C(=C/c2ccc(Cl)cc2)CCCc2ccccc21
5. O=C1C(=Nc2ccc(Nc3ccccc3)cc2)Oc2ccccc21

## Result
1. 1.97
2. 1.77
3. 1.71
4. 1.49
5. 0.64

====

- System: M14 melanoma
- measurement-notes: NCI tumour cell line growth inhibition, 48 h
result-type: TGI

## Task Need TGI, item C[C@@H]1CCC2[C@@H](C)[C@@H](O[C@H]3O[C@@H]4O[C@@]5(C)CCC6[C@H](C)CCC([C@H]3C)[C@]64OO5)O[C@@H]3O[C@@]4(C)CCC1[C@@]23OO4 (stereo not given in full)
## Result > 25 µM

## Task For the compound COC(=N)c1csc(C2OC(CO)C(O)C2O)n1 (stereo not given) , what TGI is on record?
## Result > 100 µM

## Task For the compound `CN1Nc2ccccc2CC1=O` , what TGI is on record?
## Result > 100 µM

## Task Would you mind telling me what TGI value was observed for `COC(=O)c1c2c(c(C)[n+]([O-])c1C)C(=O)C(NCc1ccc(Br)cc1)=CC2=O` ?
## Result 2.46 µM

## Task Entry `COC(=O)c1c(C)cc(OC)c(C/C=C(\C)CCCc2coc(C=C(C)C)c2)c1OC` : reported TGI = ?
## Result > 100 µM

// each compound listed below needs its TGI
1. CCN(CCNS(C)(=O)=O)c1ccc(N)c(C)c1
2. CC(C)C1CN(C(=O)OCc2ccccc2)C2N1C(=O)C2(C)OCc1ccccc1 (stereo not given)
3. COc1cc(Nc2ccc3c(c2)CCC3)nc(OC)n1
4. COc1cc(OC)c(OC)cc1/C=N/NC(=O)N/N=C/c1cc(OC)c(OC)cc1OC
5. Cc1cc(N(C)C)c2ccccc2[n+]1CCCCCCCCCC[n+]1c(C)cc(N(C)C)c2ccccc21

## Result
1: 26.4 µM; 2: > 100 µM; 3: > 100 µM; 4: > 100 µM; 5: 12 µM

Each of the following entries comes with a recorded value; kindly state TGI for each.
1. C[N+](C)(C)CC(=O)N/N=C(/Cc1cc(=O)oc2cc(O)ccc12)C(=O)Nc1ccc(Cl)cc1
2. CC(=O)N/C(=C\c1ccccc1/C=C(\NC(C)=O)c1nc2cc(C)c(C)cc2[nH]1)c1nc2cc(C)c(C)cc2[nH]1

## Result
1. > 100 µM
2. 23.9 µM

Give me TGI for each of these compounds, listed below.
1. CCOC(=O)C(NC(=O)CC)(N1CCN(c2cc3c(cc2F)c(=O)c(C(=O)O)cn3C2CC2)CC1)C(F)(F)F (stereo not given)
2. COc1ccc(-c2nc3ccccc3c(=S)n2OC(C)=O)cc1
3. c1ccc(C(C(=Nc2ccc(Cc3ccc(N=C(C(c4ccccc4)c4ccccc4)N4CC4)cc3)cc2)N2CC2)c2ccccc2)cc1
4. CN(C)CCNC(=O)Cc1ccccc1Nc1c(Cl)cccc1Cl
5. COCOCCC#CCO
6. NCCCn1c2c(c3ccc([N+](=O)[O-])cc3c1=O)C(=O)c1cc(I)ccc1-2

## Result
> 100 µM
> 25 µM
70 µM
33.9 µM
> 100 µM
1.32 µM

For each listed entry, give its TGI.
1. C/C1=C\[C@H](C)C[C@H](C)OC(=O)[C@H](C)NC(=O)[C@@H](Cc2ccc(O)c(Br)c2)N(C)C(=O)[C@H](C)NC(=O)[C@@H](C)C1
2. O=[N+]([O-])c1cccnc1N=Nc1c(O)[nH]c2ccccc12
3. CC1(C)C=CC(=O)C(O)C(C)(C)C1=O (stereo not given)

## Result
> 25 µM
58.1 µM
> 100 µM

Hi there! I need TGI for each item below, if you can.
1. NC(=O)c1cc(I)ccc1NC(=O)/C=C/c1ccccc1
2. COc1ccc(C(=O)NCCN(C)C)c2nc3ccccc3cc12
3. Cc1ccnc(NC(=S)Nc2ccc([N+](=O)[O-])cc2)c1
4. Nc1c(S(=O)(=O)c2ccc(Cl)cc2)c2nc3ccccc3nc2n2ccnc12
5. COc1cc2c(cc1OCCCCCN1CCN(c3ncnc4ccccc34)CC1)N=CC1CCCN1C2=O (stereo not given)
6. COc1ccc(Cl)cc1NC(=O)c1ccc(NC2=C(Cl)C(=O)N(Cc3ccccc3)C2=O)cc1
7. CC(C)Oc1cccc(N2C(=NCc3c[nH]c4ccccc34)Nc3ccncc3S2(=O)=O)c1

## Result
["> 100 µM", "2.99 µM", "> 100 µM", "> 100 µM", "0.128 µM", "> 100 µM", "62.6 µM"]

// for each compound below, give its TGI
1. Oc1oc(C(=C2N=c3ccccc3=N2)c2ccc(Cl)cc2)c(O)c1-c1ccc(Cl)cc1
2. COc1ccc(/C=C\c2cc(OC)c(OC)c(OC)c2)cc1OCC(=O)O
3. c1ccc(C2=NOC(c3ccccc3)N2C23CC4CC(CC(C4)C2)C3)cc1 (stereo not given)

## Result
1. 18 µM
2. 62.9 µM
3. > 10 µM

Need TGI for each of these compounds.
1. COc1ccc(-c2c(C#N)c(N3CCOCC3)nc3[nH]c(=S)[nH]c(=S)c23)cc1OC
2. COc1cc2c(cc1OCCCN1C(=O)c3cccc4cccc(c34)C1=O)N=C[C@@H]1CCCN1C2=O
3. COC1OC2COC(c3ccccc3)OC2C(O)C1OC(=S)c1ccccc1 (stereo not given)

## Result
1. > 100 µM
2. > 100 µM
3. > 100 µM

## Task Need TGI, item `O=C(c1ccccc1)c1ccc2c(c1)NC(=O)c1ccccc1SSc1ccccc1C(=O)N2`
## Result > 100 µM
